biological target: T1, MHC class I molecule A*0101 (biotin (bound to streptavidin-coated plate)); test: iTopia peptide binding assay
T1 construct: iTopia monomer stripped of placeholder peptide and b2M, then reconstituted with test peptide and fresh b2M; also called A1; HLA-A1
reportedMetric: binding, % of positive control peptide

For orientation, consider the following solved cases.
# binder, binding, % of positive control peptide
records = [
    ("LNSADLDCD [5T4 9-mer peptide 169 (LNSADLDCD)]", "0 % of positive control"),
    ("DCHMADMVT [5T4 9-mer peptide 150 (DCHMADMVT)]", "0 % of positive control"),
    ("IFLLVLYLN [5T4 9-mer peptide 185 (IFLLVLYLN)]", "0 % of positive control"),
    ("ACRDHMEGY [5T4 9-mer peptide 196 (ACRDHMEGY)]", "3 % of positive control"),
]

Continue with the binder presented below.
Item under review: DLDCDPILP [5T4 9-mer peptide 171 (DLDCDPILP)] . Reported binding, % of positive control peptide?
0 % of positive control
